- test-method-notes: activity coefficient (dimensionless); of the first substance listed, at infinite dilution; xn = mol fraction of the nth substance listed
- test-conditions: 319.99 K; Liquid; Gas Stripping Method; x1 = 0
Labelling field: enter MET if recorded activity coefficient is less than 4. Enter NOT MET if it equals or exceeds that cut-off.

{"compound": "C=CC=C [1,3-butadiene] + Cc1ccc(O)cc1", "label-value": "MET"}
{"compound": "CCC [propane] + Cc1cccc(O)c1", "label-value": "NOT MET"}
{"compound": "C/C=C/C [(E)-2-butene] + Cc1cccc(O)c1", "label-value": "NOT MET"}
{"compound": "C=CCC [1-butene] + Cc1cccc(O)c1", "label-value": "NOT MET"}
{"compound": "CC(F)F [1,1-difluoroethane] + Cc1ccc(O)cc1", "label-value": "NOT MET"}
{"compound": "CC(F)F [1,1-difluoroethane] + Cc1cccc(O)c1", "label-value": "NOT MET"}
{"compound": "COC [dimethyl ether] + Cc1cccc(O)c1", "label-value": "MET"}
{"compound": "C=CC=C [1,3-butadiene] + Cc1cccc(O)c1", "label-value": "MET"}
{"compound": "CCC [propane] + Cc1ccc(O)cc1", "label-value": "NOT MET"}
{"compound": "C=CC [propene] + Cc1ccccc1O", "label-value": "MET"}
{"compound": "C=CCC [1-butene] + Cc1ccc(O)cc1", "label-value": "NOT MET"}
{"compound": "CC(F)F [1,1-difluoroethane] + Cc1ccccc1O", "label-value": "MET"}
{"compound": "CC(C)C [2-methylpropane] + Cc1ccccc1O", "label-value": "NOT MET"}
{"compound": "CCCC [butane] + Cc1cccc(O)c1", "label-value": "NOT MET"}
{"compound": "C/C=C/C [(E)-2-butene] + Cc1ccc(O)cc1", "label-value": "NOT MET"}
{"compound": "CCCC [butane] + Cc1ccc(O)cc1", "label-value": "NOT MET"}
{"compound": "CCCl [chloroethane] + Cc1cccc(O)c1", "label-value": "MET"}
{"compound": "C=C(C)C [2-methylpropene] + Cc1cccc(O)c1", "label-value": "NOT MET"}
{"compound": "C/C=C\\C [(Z)-2-butene] + Cc1ccccc1O", "label-value": "MET"}
{"compound": "C=C(C)C [2-methylpropene] + Cc1ccc(O)cc1", "label-value": "NOT MET"}
{"compound": "CCC [propane] + Cc1ccccc1O", "label-value": "NOT MET"}
{"compound": "C=C(C)C [2-methylpropene] + Cc1ccccc1O", "label-value": "MET"}
{"compound": "CCCC [butane] + Cc1ccccc1O", "label-value": "NOT MET"}
{"compound": "CC(C)C [2-methylpropane] + Cc1cccc(O)c1", "label-value": "NOT MET"}
{"compound": "C=CC=C [1,3-butadiene] + Cc1ccccc1O", "label-value": "MET"}
{"compound": "CC(C)C [2-methylpropane] + Cc1ccc(O)cc1", "label-value": "NOT MET"}

The reported numbers originate from the NIST ThermoML archive (doi:10.1021/je100529s).
